Assayed System: HLA-A*02:01 (Homo sapiens, UniProt P04439, D140Y/D185E/D98H/E176V/E277Q/G131W/G231S/I119V/I121R/I166T/I218V/L300P/L318F/N151K/N90K/P208A/P217A/Q86G/Q94H/R138H/R169H/T345S)
Assay Details: MHC binding assay: UV-ligand exchange with β2m ELISA (peptide exchange yield)
Assay Context: MHC class I binding score; binding to HLA-A*02:01 ranged by peptide exchange yield (UV-ligand exchange, β2m ELISA)
Measure Name: Peptide Exchange

Past entries and their recorded results:
substance="47 (FLSDQPEPYL; listed as Homo sapiens) [compound 47]" result="″++″ (≥20% = ++)"
substance="177 (VLDDRELLL; listed as Homo sapiens) [compound 177]" result="″+++″ (≥50 = +++)"
substance="309 (ILYGTQFVL; listed as Homo sapiens) [compound 309]" result="″+++″ (≥50 = +++)"
substance="300 (ILLNPAYDVYL; listed as Homo sapiens) [compound 300]" result="″+++″ (≥50 = +++)"
substance="248 (KTVEPPISQV; listed as Homo sapiens) [compound 248]" result="″++″ (≥20% = ++)"

Prompt: Look up Peptide Exchange of 93 (ILFNTQINI; listed as Homo sapiens) [compound 93] and report it.
Response: ″+++″ (≥50 = +++)

Prompt: Look up Peptide Exchange of 148 (SIVASLITV; listed as Homo sapiens) [compound 148] and report it.
Response: ″+++″ (≥50 = +++)

Prompt: Look up Peptide Exchange of 127 (LLPTAPTTV; listed as Homo sapiens) [compound 127] and report it.
Response: ″+++″ (≥50 = +++)

Prompt: Look up Peptide Exchange of 165 (TLDDDLDTV; listed as Homo sapiens) [compound 165] and report it.
Response: ″++″ (≥20% = ++)

---

Test system: CD8+ T cells
Assay Details: In vitro immunogenicity: T-cell priming with aAPCs loaded with peptide/MHC and anti-CD28, pMHC multimer readout
Format: cell-based, human
Assay Context: HLA-A*02 restricted peptides; CD8+ T cells of healthy donors; three stimulation cycles
Measure Name: Wells positive [%]

Past entries and their recorded results:
substance="201 (YQLELHGIEL; listed as Homo sapiens) [compound 201]" result="″+″ (<20% = +)"
substance="281 (NLLDDRGMTAL; listed as Homo sapiens) [compound 281]" result="″+″ (<20% = +)"
substance="69 (GLHQREIFL; listed as Homo sapiens) [compound 69]" result="″+″ (<20% = +)"
substance="380 (YLDRKLLTL; listed as Homo sapiens) [compound 380]" result="″++++″ (> = 70% = ++++)"
substance="322 (SLASIHVPL; listed as Homo sapiens) [compound 322]" result="″+″ (<20% = +)"

Prompt: Look up Wells positive [%] of 102 (IQDRAVPSL; listed as Homo sapiens) [compound 102] and report it.
Response: ″+″ (<20% = +)

Prompt: Look up Wells positive [%] of 5 (ALIFKIASA; listed as Homo sapiens) [compound 5] and report it.
Response: ″+++″ (50%-69% = +++)

Prompt: Look up Wells positive [%] of 323 (SLDLFNCEV; listed as Homo sapiens) [compound 323] and report it.
Response: ″+″ (<20% = +)

Prompt: Look up Wells positive [%] of 192 (YIQEYLTLL; listed as Homo sapiens) [compound 192] and report it.
Response: ″+″ (<20% = +)

Prompt: Look up Wells positive [%] of 282 (LLRDGIELV; listed as Homo sapiens) [compound 282] and report it.
Response: ″++″ (20%-49% = ++)

Prompt: Look up Wells positive [%] of 307 (LLLTKPTEA; listed as Homo sapiens) [compound 307] and report it.
Response: ″+″ (<20% = +)

Prompt: Look up Wells positive [%] of 86 (HLYPGAVTI; listed as Homo sapiens) [compound 86] and report it.
Response: ″+″ (<20% = +)

Prompt: Look up Wells positive [%] of 1 (AIPPSFASIFL; listed as Homo sapiens) [compound 1] and report it.
Response: ″+++″ (50%-69% = +++)

Prompt: Look up Wells positive [%] of 49 (FLTDLFAQL; listed as Homo sapiens) [compound 49] and report it.
Response: ″++″ (20%-49% = ++)

Prompt: Look up Wells positive [%] of 32 (FIDKFTPPV; listed as Homo sapiens) [compound 32] and report it.
Response: ″++++″ (> = 70% = ++++)

Prompt: Look up Wells positive [%] of 100 (ILNNEVFAI; listed as Homo sapiens) [compound 100] and report it.
Response: ″++″ (20%-49% = ++)

Prompt: Look up Wells positive [%] of 2 (ALHRPDVYL; listed as Homo sapiens) [compound 2] and report it.
Response: ″+″ (<20% = +)

Prompt: Look up Wells positive [%] of 220 (ALPEILFAKV; listed as Homo sapiens) [compound 220] and report it.
Response: ″++″ (20%-49% = ++)

Prompt: Look up Wells positive [%] of 54 (FLYPFPLALF; listed as Homo sapiens) [compound 54] and report it.
Response: ″+″ (<20% = +)

Prompt: Look up Wells positive [%] of 96 (ILIDKTSFV; listed as Homo sapiens) [compound 96] and report it.
Response: ″+″ (<20% = +)

---

Assayed System: HLA-A*02:01 (Homo sapiens, UniProt P04439, D140Y/D185E/D98H/E176V/E277Q/G131W/G231S/I119V/I121R/I166T/I218V/L300P/L318F/N151K/N90K/P208A/P217A/Q86G/Q94H/R138H/R169H/T345S)
Assay Details: MHC binding assay: UV-ligand exchange with β2m ELISA (peptide exchange yield)
Assay Context: MHC class I binding score; binding to HLA-A*02:01 ranged by peptide exchange yield (UV-ligand exchange, β2m ELISA)
Measure Name: Peptide Exchange

Past entries and their recorded results:
substance="116 (LLIGATMQV; listed as Homo sapiens) [compound 116]" result="″+++″ (≥50 = +++)"
substance="157 (SLNIRDFTM; listed as Homo sapiens) [compound 157]" result="″+++″ (≥50 = +++)"
substance="265 (TLLADDLEIKL; listed as Homo sapiens) [compound 265]" result="″+++″ (≥50 = +++)"
substance="78 (GLPSFLTEV; listed as Homo sapiens) [compound 78]" result="″+++″ (≥50 = +++)"

Prompt: Look up Peptide Exchange of 118 (RLLILENILL; listed as Homo sapiens) [compound 118] and report it.
Response: ″+++″ (≥50 = +++)

Prompt: Look up Peptide Exchange of 143 (QLLDTYFTL; listed as Homo sapiens) [compound 143] and report it.
Response: ″+++″ (≥50 = +++)

Prompt: Look up Peptide Exchange of 255 (YLFEEAISM; listed as Homo sapiens) [compound 255] and report it.
Response: ″+++″ (≥50 = +++)

Prompt: Look up Peptide Exchange of 224 (AMEALVVEV; listed as Homo sapiens) [compound 224] and report it.
Response: ″+++″ (≥50 = +++)

Prompt: Look up Peptide Exchange of 145 (SALDTITTV; listed as Homo sapiens) [compound 145] and report it.
Response: ″+++″ (≥50 = +++)

Prompt: Look up Peptide Exchange of 65 (GLDDMKANL; listed as Homo sapiens) [compound 65] and report it.
Response: ″++″ (≥20% = ++)

Prompt: Look up Peptide Exchange of 259 (RLLDEQFAVL; listed as Homo sapiens) [compound 259] and report it.
Response: ″+++″ (≥50 = +++)

Prompt: Look up Peptide Exchange of 61 (FVYFIVREV; listed as Homo sapiens) [compound 61] and report it.
Response: ″+++″ (≥50 = +++)

Prompt: Look up Peptide Exchange of 350 (ALEDRVWEL; listed as Homo sapiens) [compound 350] and report it.
Response: ″+++″ (≥50 = +++)

Prompt: Look up Peptide Exchange of 95 (ILGYMAHEHKV; listed as Homo sapiens) [compound 95] and report it.
Response: ″++″ (≥20% = ++)

---

Assayed System: HLA-A*02:01 (Homo sapiens, UniProt P04439, D140Y/D185E/D98H/E176V/E277Q/G131W/G231S/I119V/I121R/I166T/I218V/L300P/L318F/N151K/N90K/P208A/P217A/Q86G/Q94H/R138H/R169H/T345S)
Assay Details: MHC binding assay: UV-ligand exchange with β2m ELISA (peptide exchange yield)
Assay Context: MHC class I binding score; binding to HLA-A*02:01 ranged by peptide exchange yield (UV-ligand exchange, β2m ELISA)
Measure Name: Peptide Exchange

Past entries and their recorded results:
substance="218 (ALGEEWKGYVV; listed as Homo sapiens) [compound 218]" result="″++″ (≥20% = ++)"
substance="197 (YLQEVPILTL; listed as Homo sapiens) [compound 197]" result="″++++″ (≥75% = ++++)"
substance="192 (YIQEYLTLL; listed as Homo sapiens) [compound 192]" result="″+++″ (≥50 = +++)"
substance="175 (FTVPRVVAV; listed as Homo sapiens) [compound 175]" result="″+++″ (≥50 = +++)"
substance="139 (NLTDVVEKL; listed as Homo sapiens) [compound 139]" result="″+++″ (≥50 = +++)"

Prompt: Look up Peptide Exchange of 56 (FVFEAPYTL; listed as Homo sapiens) [compound 56] and report it.
Response: ″+++″ (≥50 = +++)

Prompt: Look up Peptide Exchange of 20 (ALVDPGPDFVV; listed as Homo sapiens) [compound 20] and report it.
Response: ″+++″ (≥50 = +++)

Prompt: Look up Peptide Exchange of 311 (LLVDVEPKV; listed as Homo sapiens) [compound 311] and report it.
Response: ″+++″ (≥50 = +++)

Prompt: Look up Peptide Exchange of 188 (VMGDIPAAV; listed as Homo sapiens) [compound 188] and report it.
Response: ″++″ (≥20% = ++)

Prompt: Look up Peptide Exchange of 253 (NLWSVDGEVTV; listed as Homo sapiens) [compound 253] and report it.
Response: ″+++″ (≥50 = +++)
